Listed below: Kd values for each entry.
# SUBJECT_OF_TEST: T1, LuxR (Vibrio alginolyticus, UniProt B4X9Q4 1-204)
# T1 sequence: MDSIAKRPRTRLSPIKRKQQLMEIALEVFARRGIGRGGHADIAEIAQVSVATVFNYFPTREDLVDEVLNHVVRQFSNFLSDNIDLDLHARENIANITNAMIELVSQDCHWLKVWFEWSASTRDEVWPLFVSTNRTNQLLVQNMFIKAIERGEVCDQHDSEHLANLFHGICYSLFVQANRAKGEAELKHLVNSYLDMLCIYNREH
# ASSAY_REMARKS: EMSA
EXPERIMENTAL_READOUT: Kd (nM)

[
  {
    "BINDER": "AM7 (A3C) (dsDNA) DNA 1: CTAAATTTATCAATAATCATGACATTACTGTATATAAATTGTTCTACAGAT DNA 2: ATCTGTAGAACAATTTATATACAGTAATGTCATGATTATTGATAAATTTAG",
    "READOUT_NUMBER": 636
  },
  {
    "BINDER": "repDNA 51-bp probe (dsDNA) DNA 1: CTAAATTTATCAATATTATTGATAAAATTATCAATATATTGTTCTACAGAT DNA 2: ATCTGTAGAACAATATATTGATAATTTTATCAATAATATTGATAAATTTAG",
    "READOUT_NUMBER": 157
  },
  {
    "BINDER": "actDNA 51-bp probe (dsDNA) DNA 1: CTAAATTTATCAATAATAATGACATTACTGTATATAAATTGTTCTACAGAT DNA 2: ATCTGTAGAACAATTTATATACAGTAATGTCATTATTATTGATAAATTTAG",
    "READOUT_NUMBER": 449
  },
  {
    "BINDER": "AM1 (T2A) (dsDNA) DNA 1: CTAAATTTATCAATAAAAATGACATTACTGTATATAAATTGTTCTACAGAT DNA 2: ATCTGTAGAACAATTTATATACAGTAATGTCATTTTTATTGATAAATTTAG",
    "READOUT_NUMBER": 1690
  }
]
